Molecular target: T1, human OX40 protein (Acro biosystem, #OX0-H5224) (human, UniProt P43489 29-216)
T1 construct: Bought recombinant protein
T1 sequence (looked up): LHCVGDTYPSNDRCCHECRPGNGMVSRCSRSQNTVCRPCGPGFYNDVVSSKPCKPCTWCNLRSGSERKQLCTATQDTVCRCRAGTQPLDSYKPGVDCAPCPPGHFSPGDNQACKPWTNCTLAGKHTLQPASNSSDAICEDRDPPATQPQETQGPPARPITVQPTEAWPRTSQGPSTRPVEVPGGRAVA
Test: ELISA, coated human OX40 protein
As shown below, each of these binders has a reported EC50 value.

{"BINDER": "PR002064 (antibody, human IgG1, V domains shown, no light chain; also called anti-OX40 HCAb antibody) VH: EVQLVETGGGLVQPGGSLRLSCAASGFTFSSYAMSWVRQAPGKGQEWVSAISGSGGSTFYADSVRGRFTISRDNSKNTLYLQMSSLRAEDTAVYYCANGMTGTTDVDYWGQGTLVTVSS", "EC50, pM": 81.4}
{"BINDER": "PR002068 (antibody, human IgG1, V domains shown, no light chain; also called anti-OX40 HCAb antibody) VH: EVQLLESGGGLVQPGGSLRLSCAASGFSFSSYAMTWVRQAPGKGLEWVSAISGGGGSIFYADSVRGRFTISRDNSKNTLYLQMNSLRAEDTAVYYCANGMTGSTDVDYWGQGTQVTVSS", "EC50, pM": 92}
{"BINDER": "PR002067 (antibody, human IgG1, V domains shown, no light chain; also called anti-OX40 HCAb antibody) VH: EVQLLESGGGLVQPGGSLRLSCAASGFTFSSYAMSWVRQAPGKGLEWVSAISGRGGSTFYADSVRGRFTISRDNSKNTLYLQMNSLRAEDTAMYYCVDGTTGTTDVDYWGQGTLVTVSS", "EC50, pM": 80.6}
{"BINDER": "PR002073 (antibody, human IgG1, V domains shown, no light chain; also called anti-OX40 HCAb antibody) VH: EVQLVESGGGLVQPGGSLRLSCAASGFTFSSYAMSWVRQAPGKGLEWVSAISGGSGSTFYADSVRGRFTISRDNSKNTLYLQMNSLRAEDTAVYYCADGVTGTDFDFWGQGTLVTVSS", "EC50, pM": 85}
{"BINDER": "PR002057 (antibody, human IgG1, V domains shown, no light chain; also called anti-OX40 HCAb antibody) VH: EVQLLESGGGLVQPGGSLRLSCAASGFIFSSYAMSWVRQAPGKGLEWVSAISGGGGSTFYADSVRGRFTISRDNSKNTLYLQMNSLRAEDTAVYYCADGMTGTTDVDYWGQGTLVTVSS", "EC50, pM": 124}
{"BINDER": "PR002060 (antibody, human IgG1, V domains shown, no light chain; also called anti-OX40 HCAb antibody) VH: EVQLLESGGGLVQPGGSLRLSCAASGFTFSDYAMSWVRQAPGKGLEWVSAISGRGGSTYYADSVRGRFTISRDNSKNTLYLQMTSLRAEDTAVYYCANGMTGTTDVDYWGQGTLVTVSS", "EC50, pM": 82.8}
{"BINDER": "PR002063 (antibody, human IgG1, V domains shown, no light chain; also called anti-OX40 HCAb antibody) VH: EVQLLESGGGLVQPGGSLRLSCAASGFTFSSYAMSWVRQAPGRGLEWVSAISGGGGSTFYADSVRGRFTISRDNSKNTLYLQMSSLRAEDTAVYYCANGMTGTTDVDYWGQGTRVTVSS", "EC50, pM": 101}
{"BINDER": "PR002076 (antibody, human IgG1, V domains shown, no light chain; also called anti-OX40 HCAb antibody) VH: EVQLLESGGGLVQPGGSLRLSCAASGFTFSSYAMSWVRQAPGKGLEWVSAISGSGGNTYYADSVRGRFTISRDNSKNTLYLQMNSLRAEDTAVYYCANGMTGTTDVDYWGQGTRVTVSS", "EC50, pM": 65}
{"BINDER": "PR002074 (antibody, human IgG1, V domains shown, no light chain; also called anti-OX40 HCAb antibody) VH: EVQLLESGGGLVQPGGSLRLSCAASGFTFSSYAMSWVRQAPGKGLEWVSGISGGGNNTFYADSVRGRFTISRDNSKNTLYLQMNSLRAEDTAVYYCMRGWELPLLENWGQGTLVTVSS", "EC50, pM": 51.1}
{"BINDER": "PR002065 (antibody, human IgG1, V domains shown, no light chain; also called anti-OX40 HCAb antibody) VH: EVQLVESGGGLVQPGGSLRLSCAASGFTFSSYAMSWVRQAPGKGLEWVSAISGRGDITFYADSVRGRFTISRDNSKNTLYLQMNSLRAEDTALYYCANGMTGSTDVDFWGQGTLVTVSS", "EC50, pM": 63.9}
{"BINDER": "PR002061 (antibody, human IgG1, V domains shown, no light chain; also called anti-OX40 HCAb antibody) VH: EVQLLESGGGLVQPGGSLRLSCAASGFTFSSYAMSWVRQAPGKGLEWVSAISGRGGSTYYADSVRGRFTISRDNSKNTLYLQMNSLRAEDTAVYYCANGMTGTTDVDYWGQGTLVTVSS", "EC50, pM": 134}
{"BINDER": "PR002066 (antibody, human IgG1, V domains shown, no light chain; also called anti-OX40 HCAb antibody) VH: EVQLLESGGGLVQPGGSLRLSCIASGFTFSSYAMSWVRQAPGKGLEWVSAISGRGGSTFYADSVRGRFTISRDNSKNTLYLQMNSLRAEDTAVYYCANGMTGTTDVDYWGQGTQVTVSS", "EC50, pM": 118}
{"BINDER": "PR002059 (antibody, human IgG1, V domains shown, no light chain; also called anti-OX40 HCAb antibody) VH: EVQLLESGGGLVQPGGSLRLSCVVSGLTFSSYAMSWVRQAPGKGREWVSAISGRGGSTFYADSVRGRFTISRDNSKNTLYLQMNSLRAEDTAVYYCANGMTGSTDVDYWGQGTLVTVSS", "EC50, pM": 69.5}
{"BINDER": "PR002070 (antibody, human IgG1, V domains shown, no light chain; also called anti-OX40 HCAb antibody) VH: EVQLLESGGGLVQPGGSLRLSCIASGFSFSSYAMSWVRQAPGKGLEWVSAISGRGGSTFYADSVRGRFNISRDNSKNTLYLQMNSLRVEDTAVYYCANGMTGTTDVDYWGQGTLVTVSS", "EC50, pM": 72.9}
{"BINDER": "PR002075 (antibody, human IgG1, V domains shown, no light chain; also called anti-OX40 HCAb antibody) VH: EVQLVETGGGLIQPGGSLRLSCAASGFTFSSYAMSWVRQAPGKGLEWVSAISGSGGNTYYADSVRGRFTISRDNSKNTLYLQMNSLRAEDTAVYYCANGITGTTDVDYWGQGTRVTVSS", "EC50, pM": 61.8}
